# target-system: BTK protein (Homo sapiens)
# Construct: endogenous in cells; host or cells: TMD-8 cells
# Sequence (Q06187 whole entry): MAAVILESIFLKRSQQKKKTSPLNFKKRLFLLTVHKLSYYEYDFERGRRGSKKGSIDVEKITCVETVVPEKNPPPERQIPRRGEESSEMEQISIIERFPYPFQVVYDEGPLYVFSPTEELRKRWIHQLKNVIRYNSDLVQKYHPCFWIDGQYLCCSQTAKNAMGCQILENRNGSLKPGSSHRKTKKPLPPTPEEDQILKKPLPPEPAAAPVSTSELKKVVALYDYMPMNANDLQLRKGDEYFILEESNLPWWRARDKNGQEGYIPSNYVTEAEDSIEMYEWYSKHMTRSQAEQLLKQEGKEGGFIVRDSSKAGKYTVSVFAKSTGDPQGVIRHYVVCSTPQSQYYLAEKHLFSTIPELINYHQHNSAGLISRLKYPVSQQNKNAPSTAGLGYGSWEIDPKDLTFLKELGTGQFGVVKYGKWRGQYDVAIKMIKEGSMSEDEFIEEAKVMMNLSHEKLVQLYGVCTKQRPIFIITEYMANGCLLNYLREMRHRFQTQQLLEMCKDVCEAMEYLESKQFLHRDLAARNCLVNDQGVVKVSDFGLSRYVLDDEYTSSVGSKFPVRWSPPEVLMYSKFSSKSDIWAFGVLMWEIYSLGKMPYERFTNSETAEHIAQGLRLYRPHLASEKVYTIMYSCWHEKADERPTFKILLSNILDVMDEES
# assay-remarks: Measurement of BTK protein degradation ability in TMD-8 cells (Western blotting)
# Format: cell-based
# condition-set: compound 10 nM, harvested after 24 hours
Kindly supply the reported BTK degradation (%) 10 nM values for the records listed here.
Give just the number in %; leave the unit off.

Item Cc1cc(-c2ccnc(Nc3ccc(N4CCC(CN5CCC(c6ccc(NC7CCC(=O)NC7=O)cc6)CC5)CC4)cc3)n2)cnc1CNC(=O)c1cn(C(C)(C)C)nn1 (centres unmarked) has what recorded BTK degradation (%) 10 nM?
81.5

Using the record for Cc1cc(-c2ccnc(Nc3ccc(N4CCN(CC5CN(c6ccc7c(c6)C(=O)N(C6CCC(=O)NC6=O)C7=O)C5)CC4)cc3)n2)ccc1CNC(=O)c1cn(C(C)(C)C)nn1 (centres unmarked) , report its BTK degradation (%) 10 nM.
92

Fill blank: measured BTK degradation (%) 10 nM of the compound Cc1cc(-c2ccnc(Nc3ccc(C4CCN(C5CCN(C(=O)c6cccc(NC7CCC(=O)NC7=O)c6)CC5)CC4)cc3)n2)ccc1CNC(=O)N1CC(OC(C)C)C1 (centres unmarked) is ____.
39.0

So what's the measured BTK degradation (%) 10 nM for this one? Cc1cc(-c2ccnc(Nc3ccc(CN4CCN(CC5CCN(c6cccc(NC7CCC(=O)NC7=O)c6)CC5)CC4)cc3)n2)ccc1CNC(=O)N1CC(OC(C)C)C1 (centres unmarked)
92.5

Entry `Cc1cc(-c2ccnc(Nc3ccc(N4CCN(CC5CCN(c6ccc(N7CCC(=O)NC7=O)cc6)CC5)CC4)nc3)n2)ccc1CNC(=O)c1cn(C(C)(C)C)nn1` has what BTK degradation (%) 10 nM?
96.0

// provenance: patent US20250041429A1
